Target: monoclonal antibody A5, specific for (raised against) the phosphonate hapten 3
Assay: Fluorescence quenching binding of inhibitor to antibody A5
Conditions: from fluorescence quenching experiments; inhibitor of the antibody-catalyzed reaction
Method: Greater than 25 turnovers were measured with no apparent change in Vmax.

{"COMPOUND": "COP(=O)(O)Oc1ccc([N+](=O)[O-])cc1 [4-nitrophenyl methylphosphate]", "Kd (nM)": 610}

# credit: patent US5763249A
